Listing of recorded self-aminoacylation by entry.
System: biotinyl-Val-oxazolone
Assay: self-aminoacylation, catalytic enhancement (BVO) (fold over background); higher = more active; k-Seq, kA / k0A0; sequences stand for … in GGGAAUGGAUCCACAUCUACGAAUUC…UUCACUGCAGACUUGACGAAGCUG
Variants at the floor of the assay were thinned out.
Reply with the value as a number alone.

self-aminoacylation on biotinyl-Val-oxazolone for CUACUUCAGGCAAUCGGUCUG [Fam1A.1 aminoacylation ribozyme variant] is 1.24

self-aminoacylation on biotinyl-Val-oxazolone for AUUACCCUGGUCAUCAAGUGC [Fam2.1 aminoacylation ribozyme variant] is 0.795

self-aminoacylation on biotinyl-Val-oxazolone for ACUACCCUGGUCAGCGAGUGA [Fam2.1 aminoacylation ribozyme variant] is 4.6

self-aminoacylation on biotinyl-Val-oxazolone for AGGACCCUGGUCAUCGAGUGA [Fam2.1 aminoacylation ribozyme variant] is 5.05

self-aminoacylation on biotinyl-Val-oxazolone for CCACACUUCAAACAUUCGGUC [Fam1B.1 aminoacylation ribozyme variant] is 1.4

* * *

Listing of recorded self-aminoacylation by entry.
Tested on: biotinyl-Met-oxazolone
Assay: self-aminoacylation, catalytic enhancement (BMO) (fold over background); higher = more active; k-Seq, kA / k0A0; sequences stand for … in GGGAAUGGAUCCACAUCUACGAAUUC…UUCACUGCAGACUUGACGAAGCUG
Fewer inactive variants are shown than the library holds.
Reply with the value as a number alone.

Use the examples below as a reference point.
[[record]]
chain_sequence = "CCACACUUCAAGCAAUCGUUC [Fam1B.1 aminoacylation ribozyme variant]"
numeric_readout = 0.57

[[record]]
chain_sequence = "AUUAUCCUGGACAUCGAGUGA [Fam2.1 aminoacylation ribozyme variant]"
numeric_readout = 6.78

[[record]]
chain_sequence = "AUUCACCUUGGUGAUCGGGUG [Fam2.2 aminoacylation ribozyme variant]"
numeric_readout = 3.12

[[record]]
chain_sequence = "CUACUUCAAGGAAUCGGUCUG [Fam1A.1 aminoacylation ribozyme variant]"
numeric_readout = 1.64


Proceed to the following item.
Per the records, this sequence ( AAGUUCGCUAAUAGUCGCAUG [Fam3.1 aminoacylation ribozyme variant] ) has self-aminoacylation equal to 2.27

* * *

System: biotinyl-Val-oxazolone
Assay: self-aminoacylation, catalytic enhancement (BVO) (fold over background); higher = more active; k-Seq, kA / k0A0; sequences stand for … in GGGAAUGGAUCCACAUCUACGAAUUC…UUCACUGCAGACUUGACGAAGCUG
This sample holds only a part of the variants without activity.
Rule: 1.0 for self-aminoacylation not less than 1, 0.0 for anything less.

[[record]]
chain_sequence = "CCACACUGCAAGGAAUCGGUC [Fam1B.1 aminoacylation ribozyme variant]"
system_name = "biotinyl-Val-oxazolone"
answer_label = 1.0


Enquiry: For this sequence, is measured self-aminoacylation 1 or higher? CUAGUUCAAACAAACGGUCUG [Fam1A.1 aminoacylation ribozyme variant]
Return: 0.0

Enquiry: For this sequence, is measured self-aminoacylation 1 or higher? AUUCACCUAGGUCAUCGCUUG [Fam2.2 aminoacylation ribozyme variant]
Return: 1.0

Enquiry: For this sequence, is measured self-aminoacylation 1 or higher? AAGUCUGUUAAUAGUCGCAAG [Fam3.1 aminoacylation ribozyme variant]
Return: 1.0

Enquiry: For this sequence, is measured self-aminoacylation 1 or higher? AUUGCCCUGGUAAUCGAGUGA [Fam2.1 aminoacylation ribozyme variant]
Return: 1.0

Enquiry: For this sequence, is measured self-aminoacylation 1 or higher? CUACCUCAAACAAUCGGUCGG [Fam1A.1 aminoacylation ribozyme variant]
Return: 1.0

Enquiry: For this sequence, is measured self-aminoacylation 1 or higher? AUUCAAAUAGGUCAUCGGGUG [Fam2.2 aminoacylation ribozyme variant]
Return: 1.0

Enquiry: For this sequence, is measured self-aminoacylation 1 or higher? CCACACUUCAAGCAAACGAUC [Fam1B.1 aminoacylation ribozyme variant]
Return: 0.0

Enquiry: For this sequence, is measured self-aminoacylation 1 or higher? AUUCACCUAGGUCAUCGGGGC [Fam2.2 aminoacylation ribozyme variant]
Return: 1.0

Enquiry: For this sequence, is measured self-aminoacylation 1 or higher? AUUAACCUGGUCAUCGAGUGG [Fam2.1 aminoacylation ribozyme variant]
Return: 1.0

Enquiry: For this sequence, is measured self-aminoacylation 1 or higher? CCACACUUCAAGCAAGCGGGC [Fam1B.1 aminoacylation ribozyme variant]
Return: 1.0

The origin of these recorded values is the supplement of paper PMC9233669.
